- measured-target: Recombinant Rhinovirus 3C protease (RVP) serotype-14 (Human rhinovirus 14, UniProt P03303)
- Construct: Recombinant Rhinovirus 3C proteases from serotypes 14, 16, 2 or 89; made in house
- Sequence (P03303 1538-1719): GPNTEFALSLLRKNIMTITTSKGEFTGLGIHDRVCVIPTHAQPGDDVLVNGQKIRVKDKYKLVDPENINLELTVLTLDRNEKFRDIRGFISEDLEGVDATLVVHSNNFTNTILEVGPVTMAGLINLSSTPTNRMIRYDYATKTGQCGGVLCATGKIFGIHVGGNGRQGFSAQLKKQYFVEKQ
- assay-notes: Inhibition of Rhinovirus Protease (fluorescence resonance energy transfer assay), serotype 14
- Format: biochemical, human rhinovirus (HRV)
- conditions-used: RVP serotype-14; progress curves in enzyme start experiments
- Protocol: Stock solution (50 mM, in DMSO) of various compounds were prepared; dilutions were in the same solvent. […] RVP activity is measured in the fluorescence resonance energy transfer assay. […] In the uncleaved peptide, the EDANS fluorescence was quenched by the proximal DABCYL moeity. When the peptide was cleaved, the quenching was relieved, and activity was measured as an increase in fluorescence signal. […]
kobs/I reference
measurement-name: kobs/I

- compound: "CCOC(=O)/C=C/[C@H](CCC(N)=O)NC(=O)[C@H](Cc1ccccc1)NC(=O)[C@@H](NC(=O)OCc1ccccc1)C(C)C"
  measurement-name: "kobs/I"
  recorded-value: "62,500 M-1 sec-1"
- compound: "CCOC(=O)/C=C/[C@H](CCC(N)=O)NC(=O)[C@H](Cc1ccccc1)NC(=O)[C@@H](NC(=O)SC1CCCC1)C(C)(C)SC"
  measurement-name: "kobs/I"
  recorded-value: "286,300 M-1 sec-1"
- compound: "CCOC(=O)/C=C/[C@H](CCC(N)=O)NC(=O)[C@H](Cc1ccccc1)NC(=O)[C@H](CO)NC(=O)OCc1ccccc1"
  measurement-name: "kobs/I"
  recorded-value: "39,940 M-1 sec-1"
- compound: "CCOC(=O)/C=C/[C@H](CCC(N)=O)NC(=O)[C@H](Cc1ccccc1)NC(=O)[C@H](CC(C)C)NC(=O)C1CCCC1"
  measurement-name: "kobs/I"
  recorded-value: "23,670 M-1 sec-1"
- compound: "CCOC(=O)C=CC(CCC(N)=O)NC(=O)C(Cc1ccccc1)NC(=O)C(NC(=O)OCc1ccccc1)C(C)CC (stereo not shown)"
  measurement-name: "kobs/I"
  recorded-value: "31,700 M-1 sec-1"
- compound: "CC(C)C[C@H](NC(=O)OCc1ccccc1)C(=O)N[C@@H](Cc1ccccc1)C(=O)N[C@H](/C=C/C(=O)N1CCOC1=O)CCC(N)=O"
  measurement-name: "kobs/I"
  recorded-value: "600,000 M-1 sec-1"
- compound: "CCOC(=O)/C=C/[C@H](CCC(N)=O)NC(=O)[C@H](CSCC)NC(=O)[C@H](CC(C)C)NC(=O)OCc1ccccc1"
  measurement-name: "kobs/I"
  recorded-value: "2,963 M-1 sec-1"

====

- Test system: HI-HeLa cells
- assay-notes: Cytotoxicity in mock-infected HI-HeLa cells (antirhinoviral assay, XTT)
- Format: cell-based
# key: entry, value: CC50
measurement-name: CC50

- molecule: "CC(C)CC(NC(=O)OCc1ccccc1)C(=O)NC(Cc1ccccc1)C(=O)NC(C=C1CCOC1=O)CCC(N)=O (stereo not drawn)"
  measurement-name: "CC50"
  recorded-value: "> 320 µM"
- molecule: "CCOC(=O)/C=C/[C@H](CCC(N)=O)NC(=O)[C@H](Cc1ccccc1)NC(=O)[C@H](CC(C)C)NC(=O)SC(C)C"
  measurement-name: "CC50"
  recorded-value: "> 100 µM"
- molecule: "CCOC(=O)/C=C/[C@H](CCC(N)=O)NC(=O)[C@H](Cc1ccccc1)NC(=O)[C@H](Cc1ccccc1)NC(=O)SCc1ccccc1"
  measurement-name: "CC50"
  recorded-value: "> 100 µM"
- molecule: "CCOC(=O)/C=C/[C@H](CCC(N)=O)NC(=O)[C@H](CSCC)NC(=O)[C@H](CC(C)C)NC(=O)OCc1ccccc1"
  measurement-name: "CC50"
  recorded-value: "> 320 µM"
- molecule: "CCOC(=O)/C=C/[C@H](CCC(N)=O)NC(=O)[C@H](Cc1ccccc1)NC(=O)[C@H](CC(=O)N(C)C)NC(=O)OCc1ccccc1"
  measurement-name: "CC50"
  recorded-value: "> 320 µM"
- molecule: "CCOC(=O)/C(C)=C/[C@H](CCC(N)=O)NC(=O)[C@H](Cc1ccccc1)NC(=O)[C@@H](NC(=O)SCC)C(C)(C)C"
  measurement-name: "CC50"
  recorded-value: "> 100 µM"

====

- measured-target: Recombinant Rhinovirus 3C protease (RVP) serotype-14 (Human rhinovirus 14)
- Construct: Recombinant Rhinovirus 3C proteases from serotypes 14, 16, 2 or 89; made in house
- assay-notes: Inhibition of Rhinovirus Protease (fluorescence resonance energy transfer assay), serotype 14
- Assay type: biochemical, human rhinovirus (HRV)
measurement-name: log10(Ki) (log10 of the value in µM)

- compound: "CCOC(=O)/C=C/[C@H](COC(N)=O)NC(=O)[C@H](Cc1ccccc1)NC(=O)[C@H](CC(C)C)NC(=O)OCc1ccccc1"
  log10(Ki): 1.18
- compound: "CCOC(=O)/C=C/[C@H](CCC(N)=O)NC(=O)[C@H](Cc1ccccc1)NC(=O)[C@H](Cc1ccccc1)NC(=O)OCc1ccccc1"
  log10(Ki): 0.78
- compound: "CCOC(=O)/C=C/[C@H](CCC(N)=O)NC(=O)[C@H](Cc1ccccc1)NC(=O)[C@@H](NC(=O)OCc1ccccc1)C(C)O (stereo partly drawn)"
  log10(Ki): 0.51
- compound: "CCOC(=O)/C=C/[C@H](CCC(N)=O)NC(=O)[C@H](Cc1ccccc1)NC(=O)CNC(=O)OCc1ccccc1"
  log10(Ki): 1.08
- compound: "CCOC(=O)/C=C/[C@H](CCC(N)=O)NC(=O)[C@H](Cc1ccccc1)NC(=O)[C@H](CSc1ccccc1)NC(=O)OCc1ccccc1"
  log10(Ki): 0.15
- compound: "CC(C)C[C@H](NC(=O)OCc1ccccc1)C(=O)N[C@@H](Cc1ccccc1)C(=O)N[C@H](/C=C/C(=O)N1CCc2cc([N+](=O)[O-])ccc21)CCC(N)=O"
  log10(Ki): 0.60
- compound: "CC(C)C[C@H](NC(=O)OCc1ccccc1)C(=O)N[C@@H](Cc1ccccc1)C(=O)N[C@H](/C=C/C(=O)N(C)O)CCC(N)=O"
  log10(Ki): 1.30
- compound: "CCOC(=O)/C=C/[C@H](CCC(N)=O)NC(=O)[C@H](Cc1ccc(C)cc1)NC(=O)[C@@H](NC(=O)SC1CCCC1)C(C)C"
  log10(Ki): -0.26
- compound: "CCOC(=O)/C=C/[C@H](CCC(N)=O)NC(=O)[C@H](Cc1ccccc1)NC(=O)[C@H](CC(C)C)NC(C)=O"
  log10(Ki): 1.13
- compound: "CON=C/C=C/[C@H](CCC(N)=O)NC(=O)[C@H](Cc1ccccc1)NC(=O)[C@H](CC(C)C)NC(=O)OCc1ccccc1"
  log10(Ki): 0.90
- compound: "CON(C)C(=O)/C=C/[C@H](CCC(N)=O)NC(=O)[C@H](Cc1ccccc1)NC(=O)[C@H](CC(C)C)NC(=O)OCc1ccccc1"
  log10(Ki): 1.27
- compound: "CCOC(=O)/C=C/C(CCC(N)=O)NC(=O)C(Cc1ccccc1)NC(=O)C(CC(C)C)NC(=O)c1ccc2ccccc2c1 (stereo not drawn)"
  log10(Ki): 1.10
- compound: "CCOC(=O)/C=C/[C@H](CCC(N)=O)NC(=O)[C@H](Cc1ccccc1)NC(=O)[C@H](CC(C)C)NC(=O)CSc1ccccn1"
  log10(Ki): 1.59
- compound: "CC(=O)/C=C/[C@H](CCC(N)=O)NC(=O)[C@H](Cc1ccccc1)NC(=O)[C@H](CC(C)C)NC(=O)OCc1ccccc1"
  log10(Ki): 0.81
- compound: "CCOC(=O)/C=C/[C@H](CCC(N)=O)NC(=O)[C@H](Cc1ccccc1)NC(=O)[C@H](CC(C)C)NC(=O)OCc1ccncc1"
  log10(Ki): 1.18
- compound: "CC(C)C[C@H](NC(=O)OCc1ccccc1)C(=O)N[C@@H](Cc1ccccc1)C(=O)N[C@H](/C=C/C(=O)N1CCc2cc(Br)ccc21)CCC(N)=O"
  log10(Ki): 0.18
- compound: "CCOC(=O)/C=C/[C@H](CC[S+](C)[O-])NC(=O)[C@H](Cc1ccccc1)NC(=O)[C@H](CC(C)C)NC(=O)OCc1ccccc1 (stereo partly drawn)"
  log10(Ki): 0.63
- compound: "CC(C)C[C@H](NC(=O)OCc1ccccc1)C(=O)N[C@@H](Cc1ccccc1)C(=O)N[C@H](/C=C/C(=O)N(C)C)CCC(N)=O"
  log10(Ki): 0.63
- compound: "COCCOC(=O)/C=C/[C@H](CCC(N)=O)NC(=O)[C@H](Cc1ccc(C)cc1)NC(=O)[C@@H](NC(=O)SC1CCCC1)C(C)(C)C"
  log10(Ki): -0.80
- compound: "CC(C)C[C@H](NC(=O)OCc1ccccc1)C(=O)N[C@@H](Cc1ccccc1)C(=O)N[C@H](/C=C/C(=O)OC(C)C)CCC(N)=O"
  log10(Ki): 0.10
